target: FPTase (K-Ras substrate) (UniProt P29702+P49355); assay: in vitro FTase Inhibition Assay, K-Ras as substrate for farnesylation; details: K-Ras used as substrate for farnesylation
pIC50: −log10 of the molar value.
Measured pIC50 by item
readout: pIC50

compound: Cc1ccc(S(=O)(=O)C2(CCC/C=C\c3ccc(Cl)cc3)SC(=O)NC2=O)cc1 (stereo not shown)
readout: pIC50
reported measurement: 5.07

compound: COc1ccc(S(=O)(=O)C2(CCCC#Cc3cc(NC(=O)Nc4ccc(Cl)cc4)ccc3C)SC(=O)NC2=O)cc1 (stereo not shown)
readout: pIC50
reported measurement: 5.92

* * *

Measured pIC50 by item
Target: FPTase (H-Ras substrate) (UniProt P29702+P49355)
Assay: in vitro FTase Inhibition Assay, H-Ras as substrate for farnesylation
Conditions: H-Ras used as substrate for farnesylation
Protocol: The ability of the compounds of this invention to inhibit FPTase was evaluated in the standard pharmacological in vitro test procedures described below. Methods—1. […] 2. Solution #1 is added to FPTase reaction in a volume of […]. 3. Standard reaction mix, […], contains 50 mM Tris (7.5), […], 3 mM MgCl2, 20 mM KCl, 5 mM DTT, 0.2% octyl-B-glucoside, 1% DMSO, […], 10 ng FPTase, and various concentrations of FPTase inhibitors. 4. Incubate for 30-90 min at 250° C. 5. […]
pIC50: −log10 of the molar value.

compound: O=C1NC(=O)C(CCCC#Cc2ccc(Cl)cc2)(S(=O)(=O)c2ccc(Oc3ccccc3)cc2)S1 (stereo not shown) [Example 106]
pIC50: 6.60 to 6.64

compound: COc1ccc(S(=O)(=O)C2(CCCC#Cc3cc(NC(=O)OCC(C)(C)C)ccc3C)SC(=O)NC2=O)cc1 (stereo not shown) [Example 180]
pIC50: 7.49 to 8.70

compound: Cc1ccc([N+](=O)[O-])cc1C#CCCCC1(S(=O)(=O)c2ccc3ccccc3c2)SC(=O)NC1=O (stereo not shown) [Example 127]
pIC50: 6.85 to 6.92

compound: O=C1NC(=O)C(CCCC#Cc2ccc(-n3cccc3)cc2)(S(=O)(=O)c2ccc(OC(F)(F)F)cc2)S1 (stereo not shown) [Example 163]
pIC50: 5.89
